# Test system: c-Src
# Method summary: phosphorylation enrichment, bacterial display (enrichment ratio); higher = better substrate or ligand; peptides without Tyr show the background;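 also: 11-residue human phosphosite peptides and single-mutation variants displayed on the E. coli surface, counted by deep sequencing, each peptide's frequency after selection divided by its frequency in the unselected input library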;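 also: frequency after pTyr selection over input frequency; kinase dosed for 20-30% of maximal phosphorylation in three min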
Measure name: phosphorylation enrichment
Response field accepts a number only; no unit should be typed.

Solved cases below.
Seq text	phosphorylation enrichment
QTSTDYDIRFY [CSNK2A1_Y131_L128S]	0.785
TTKGAYSLSVR [YES1_Y194_I198V]	0.376
DNEFAYLKAII [HNF4A_Y288_YF]	0.419

Field: next sequence
Kindly note the recorded phosphorylation enrichment for PRQRRYVYYYS [PTEN_Y174_S170R] , which is 0.728

====

# Target or system: EPHB1 (UniProt P54762)
# Sequence (P54762 whole entry, looked up): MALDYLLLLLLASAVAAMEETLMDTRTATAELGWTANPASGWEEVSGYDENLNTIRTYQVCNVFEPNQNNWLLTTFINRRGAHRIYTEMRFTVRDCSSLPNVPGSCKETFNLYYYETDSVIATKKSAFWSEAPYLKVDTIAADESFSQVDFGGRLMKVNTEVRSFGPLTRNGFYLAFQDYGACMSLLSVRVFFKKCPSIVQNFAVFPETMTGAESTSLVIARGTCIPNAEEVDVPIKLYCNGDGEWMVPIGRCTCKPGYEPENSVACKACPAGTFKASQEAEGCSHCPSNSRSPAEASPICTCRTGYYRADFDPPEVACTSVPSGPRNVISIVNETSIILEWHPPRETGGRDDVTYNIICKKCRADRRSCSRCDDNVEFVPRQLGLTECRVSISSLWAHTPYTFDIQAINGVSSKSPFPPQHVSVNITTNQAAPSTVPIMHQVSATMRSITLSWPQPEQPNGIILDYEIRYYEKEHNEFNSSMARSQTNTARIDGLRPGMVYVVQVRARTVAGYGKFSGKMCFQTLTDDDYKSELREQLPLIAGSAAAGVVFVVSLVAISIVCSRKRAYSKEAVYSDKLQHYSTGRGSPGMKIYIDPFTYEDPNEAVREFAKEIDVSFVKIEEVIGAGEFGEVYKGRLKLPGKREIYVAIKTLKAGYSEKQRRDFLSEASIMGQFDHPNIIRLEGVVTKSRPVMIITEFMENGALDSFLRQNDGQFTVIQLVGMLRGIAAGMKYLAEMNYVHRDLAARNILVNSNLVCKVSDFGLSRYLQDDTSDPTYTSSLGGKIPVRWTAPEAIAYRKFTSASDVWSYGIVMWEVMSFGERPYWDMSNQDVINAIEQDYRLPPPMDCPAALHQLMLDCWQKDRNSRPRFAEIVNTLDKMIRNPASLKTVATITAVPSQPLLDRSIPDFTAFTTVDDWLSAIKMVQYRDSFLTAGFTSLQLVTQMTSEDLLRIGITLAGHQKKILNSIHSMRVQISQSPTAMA
# Method summary: phosphorylation enrichment, bacterial display (enrichment ratio); higher = better substrate or ligand; peptides without Tyr show the background
Dear colleague, classification is by phosphorylation enrichment, with ranges listed here: one: < 0.5; two: ≥ 0.5 and < 0.7; three: ≥ 0.7

// below: answered sequences
Seq text	Class assignment
SSNLFYRWLTA [CNGA3_Y169_YF]	two
SVLVPYEPPEV [TP53_Y220_V217L]	two
SGASGYSATST [CERT1_Y143]	one
GRVLGYGAFGK [FLT4_Y853]	one
AGIVVYNIIGW [MYH7_Y588_D587V]	three

[ask] Note: place this sequence into its band. Item: PIFEGYGLPHA [ACTA1_Y171_A172G_YF]
[reply] one

[ask] Which phosphorylation enrichment band matches HCHEGYILHGA [SVEP1_Y2921] ?
[reply] three

[ask] Classify this sequence: TVQVAYFTVMM [SPATA17_Y83_M86V_YF]
[reply] three

[ask] Kindly state the category for this sequence: EVKEAYMGSVL [ACAT1_Y90_N93S]
[reply] one

[ask] Could you tell me which band NTGDFCDLFGG [PTPN11_Y63_Y63C_YF] belongs to?
[reply] two

[ask] Which bin should I file VSFGEYRFRSV [CFTR_Y515_D513G_YF] under?
[reply] one

[ask] Consider GHPFAYDWISI [BEST1_Y227_L224P_YF] . To which phosphorylation enrichment class does it belong?
[reply] three

[ask] Kindly identify the class of RQQEDYLLYKQ [RARRES1_Y159] .
[reply] three

[ask] Tag the class for NTQRPHYKGGG [TYROBP_Y111_Y111H]
[reply] one

[ask] Band for EEVGIYRMSGV [BCR_Y1089_V1091M] ?
[reply] two

[ask] Category of FDKEFYSVHNK [MET_Y1235_YF] :
[reply] one

[ask] Into which bin does this sequence go? GSSSSYGQHGS [HRNR_Y517]
[reply] one

[ask] Class? Entry: PRQRRYVYYYS [PTEN_Y174_S170R]
[reply] two

[ask] Quick check: band for ETELPYQELQG [TYROBP_Y91_S89L]
[reply] two

[ask] For this sequence, which bin applies? LGNFNYEQRGA [API5_Y497]
[reply] one

[ask] Categorize the following entry: KVPAIYGVGTR [CPS1_Y162_D165G]
[reply] one

[ask] Which phosphorylation enrichment category applies to QYQEKYKQVEQ [HCN4_Y531] here?
[reply] three

[ask] Which category fits this record: QDEHGYISWCF [HSPB1_Y133_R136W]
[reply] three

[ask] // bin(item) where item = NGVSFYINLCQ [IGF2R_Y2025_YF]
[reply] three

[ask] Would you mind sorting IDPYTYTPFGS [CYP3A4_Y432_I431T] into the appropriate category?
[reply] two

[ask] Categorize the following entry: TFEYRYLEDQD [CNOT3_Y746_R750Q]
[reply] two

[ask] Class for ARAHKYHGGGG [HBB_Y146_L142R] ?
[reply] one

Measured values drawn from the supplement of paper PMC10065799 for this set.
